system: Penicillium; experiment: Antifungal activity against Penicillium at 50 ug/ml after 72 hrs by disc diffusion method; format: functional, organism-based
Calls of active or inactive are those of the source. The rule behind the calls is not given here.
Classes used: active, inactive

mol	subject.of.test	label
Cc1cc2c(cc1I)N1Cc3cc(C)c(I)cc3N(C2)C1	Penicillium	inactive
Clc1ccc2c(c1)N1Cc3ccc(Cl)cc3N(C2)C1	Penicillium	inactive
Cc1cc(Br)c2c(c1)CN1CN2Cc2cc(C)cc(Br)c21	Penicillium	inactive
Cc1cc(Br)cc2c1N1Cc3cc(Br)cc(C)c3N(C2)C1	Penicillium	inactive
Fc1ccc2c(c1)N1Cc3ccc(F)cc3N(C2)C1	Penicillium	inactive
CCOC(=O)c1ccc2c(c1)CN1CN2Cc2cc(C(=O)OCC)ccc21	Penicillium	inactive
Cc1ccc2c(c1I)CN1CN2Cc2c1ccc(C)c2I	Penicillium	inactive
Fc1ccc2c(c1)CN1CN2Cc2cc(F)ccc21	Penicillium	inactive
Cc1cc(I)c2c(c1)CN1CN2Cc2cc(C)cc(I)c21	Penicillium	inactive
Cc1cc2c(cc1F)N1Cc3cc(C)c(F)cc3N(C2)C1	Penicillium	inactive
Cc1cc2c(cc1Br)N1Cc3cc(C)c(Br)cc3N(C2)C1	Penicillium	inactive
Fc1cccc2c1N1Cc3cccc(F)c3N(C2)C1	Penicillium	inactive
Cc1cc2c(cc1Cl)N1Cc3cc(C)c(Cl)cc3N(C2)C1	Penicillium	inactive
Clc1cccc2c1N1Cc3cccc(Cl)c3N(C2)C1	Penicillium	inactive
Cc1cc(C#N)c2c(c1)CN1CN2Cc2cc(C)cc(C#N)c21	Penicillium	inactive
Brc1cccc2c1CN1CN2Cc2c(Br)cccc21	Penicillium	inactive
Cc1cc(N)c2c(c1)CN1CN2Cc2cc(C)cc(N)c21	Penicillium	active
CCCOC(=O)c1ccc2c(c1)CN1CN2Cc2cc(C(=O)OCCC)ccc21	Penicillium	active
Clc1cccc2c1CN1CN2Cc2c(Cl)cccc21	Penicillium	inactive
Cc1ccc2c(c1Cl)CN1CN2Cc2c1ccc(C)c2Cl	Penicillium	inactive
Fc1cc(F)c2c(c1)CN1CN2Cc2cc(F)cc(F)c21	Penicillium	inactive
Cc1cc(N)cc2c1N1Cc3cc(N)cc(C)c3N(C2)C1	Penicillium	inactive
COc1ccc2c(c1Br)CN1CN2Cc2c1ccc(OC)c2Br	Penicillium	active
Brc1ccc2c(c1)N1Cc3ccc(Br)cc3N(C2)C1	Penicillium	inactive
Cc1cc(F)c2c(c1)CN1CN2Cc2cc(C)cc(F)c21	Penicillium	inactive
